target: Cannabinoid receptor 2 (Homo sapiens, UniProt P34972); test: Cross screening panel
Sequence (P34972 whole entry): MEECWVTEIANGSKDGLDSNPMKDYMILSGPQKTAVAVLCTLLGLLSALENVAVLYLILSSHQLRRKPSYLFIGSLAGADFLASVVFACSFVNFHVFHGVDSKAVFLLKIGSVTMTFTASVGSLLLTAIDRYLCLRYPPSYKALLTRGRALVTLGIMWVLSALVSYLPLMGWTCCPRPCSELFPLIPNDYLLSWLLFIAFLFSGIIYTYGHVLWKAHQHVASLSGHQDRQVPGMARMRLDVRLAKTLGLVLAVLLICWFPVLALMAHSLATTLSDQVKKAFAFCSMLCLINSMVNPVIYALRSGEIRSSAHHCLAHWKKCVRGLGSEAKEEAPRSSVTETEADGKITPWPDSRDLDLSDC
pEC50: −log10 of the molar value.
recorded-endpoint: pEC50

{"compound": "COCc1nc2cnc3cc(-c4c(C)noc4C)c(OC[C@H]4CCNC4)cc3c2n1[C@H](C)c1ccccc1 [GSK778]", "endpoint-value": "< 4.00"}

---

target: D(2) dopamine receptor (Homo sapiens, UniProt P14416); experiment: Cross screening panel
Sequence (P14416 whole entry): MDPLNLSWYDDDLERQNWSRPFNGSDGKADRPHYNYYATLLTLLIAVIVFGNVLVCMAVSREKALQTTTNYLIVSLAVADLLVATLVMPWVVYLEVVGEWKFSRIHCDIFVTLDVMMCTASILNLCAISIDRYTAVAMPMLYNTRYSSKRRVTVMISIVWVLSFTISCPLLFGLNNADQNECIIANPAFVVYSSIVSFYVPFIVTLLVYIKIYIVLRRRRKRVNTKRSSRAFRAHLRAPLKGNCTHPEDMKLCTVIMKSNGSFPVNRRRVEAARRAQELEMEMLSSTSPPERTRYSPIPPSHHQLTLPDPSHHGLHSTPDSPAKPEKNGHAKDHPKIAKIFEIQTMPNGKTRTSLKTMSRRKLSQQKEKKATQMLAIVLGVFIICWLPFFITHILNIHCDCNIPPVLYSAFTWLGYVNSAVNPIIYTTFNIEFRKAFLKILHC

{"given-smiles": "COCc1nc2cnc3cc(-c4c(C)noc4C)c(OC[C@H]4CCNC4)cc3c2n1[C@H](C)c1ccccc1", "EC50": "> 100 µM"}

---

target: Bromodomain adjacent to zinc finger domain protein 2B (Homo sapiens); assay: BAZ2B DiscoverX BROMOscan

{"given-smiles": "COCc1nc2cnc3cc(-c4c(C)noc4C)c(OC[C@H]4CCNC4)cc3c2n1[C@H](C)c1ccccc1", "system-under-test": "Bromodomain adjacent to zinc finger domain protein 2B (Homo sapiens)", "Kd": "30 µM"}

---

biological target: Mu-type opioid receptor (Homo sapiens, UniProt P35372); assay: Cross screening panel
Sequence (P35372 whole entry): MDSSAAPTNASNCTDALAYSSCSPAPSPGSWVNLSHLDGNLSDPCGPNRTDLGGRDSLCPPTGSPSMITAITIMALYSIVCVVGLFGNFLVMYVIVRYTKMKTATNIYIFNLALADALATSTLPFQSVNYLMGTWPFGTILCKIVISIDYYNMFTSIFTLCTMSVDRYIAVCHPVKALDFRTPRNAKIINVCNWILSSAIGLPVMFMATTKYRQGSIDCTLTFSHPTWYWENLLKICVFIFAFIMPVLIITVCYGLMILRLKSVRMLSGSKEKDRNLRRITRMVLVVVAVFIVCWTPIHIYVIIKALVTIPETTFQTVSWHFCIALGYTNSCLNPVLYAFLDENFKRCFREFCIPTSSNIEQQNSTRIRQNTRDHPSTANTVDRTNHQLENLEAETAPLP

{"compound": "COCc1nc2cnc3cc(-c4c(C)noc4C)c(OC[C@H]4CCNC4)cc3c2n1[C@H](C)c1ccccc1 [GSK778]", "EC50": "> 100 µM"}

---

Sequence of the target: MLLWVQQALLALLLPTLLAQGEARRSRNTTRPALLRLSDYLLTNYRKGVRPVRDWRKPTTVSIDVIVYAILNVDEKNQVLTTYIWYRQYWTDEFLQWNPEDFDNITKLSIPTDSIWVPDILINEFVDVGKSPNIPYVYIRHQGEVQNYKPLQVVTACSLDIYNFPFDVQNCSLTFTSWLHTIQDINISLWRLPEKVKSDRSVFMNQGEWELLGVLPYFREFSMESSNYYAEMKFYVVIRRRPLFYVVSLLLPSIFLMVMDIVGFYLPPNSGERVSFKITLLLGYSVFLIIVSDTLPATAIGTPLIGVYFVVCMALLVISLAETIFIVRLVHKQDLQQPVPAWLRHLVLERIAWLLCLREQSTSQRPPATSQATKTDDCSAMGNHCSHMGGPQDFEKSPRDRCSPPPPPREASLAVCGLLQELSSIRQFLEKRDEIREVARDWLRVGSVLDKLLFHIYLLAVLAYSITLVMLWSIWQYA
recorded-endpoint: Ki

{"given-smiles": "COCc1nc2cnc3cc(-c4c(C)noc4C)c(OC[C@H]4CCNC4)cc3c2n1[C@H](C)c1ccccc1", "recorded-endpoint": "Ki", "endpoint-value": "4.46 µM"}

---

target: D(1A) dopamine receptor (Homo sapiens, UniProt P21728)
Sequence (P21728 whole entry): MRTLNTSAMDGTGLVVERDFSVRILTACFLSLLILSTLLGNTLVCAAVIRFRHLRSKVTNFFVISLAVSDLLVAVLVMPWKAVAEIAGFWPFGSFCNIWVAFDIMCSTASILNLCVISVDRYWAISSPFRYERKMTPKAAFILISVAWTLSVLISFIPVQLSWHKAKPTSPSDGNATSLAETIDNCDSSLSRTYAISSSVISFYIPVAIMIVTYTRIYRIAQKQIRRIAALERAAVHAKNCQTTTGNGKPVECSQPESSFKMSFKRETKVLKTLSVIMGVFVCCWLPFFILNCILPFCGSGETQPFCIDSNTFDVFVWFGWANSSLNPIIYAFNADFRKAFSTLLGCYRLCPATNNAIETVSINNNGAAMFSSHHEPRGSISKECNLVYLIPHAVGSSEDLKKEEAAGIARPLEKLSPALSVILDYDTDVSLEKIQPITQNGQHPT
recorded-endpoint: IC50

{"compound": "COCc1nc2cnc3cc(-c4c(C)noc4C)c(OC[C@H]4CCNC4)cc3c2n1[C@H](C)c1ccccc1 [GSK778]", "recorded-endpoint": "IC50", "endpoint-value": "> 100 µM"}

---

biological target: 3',5'-cyclic-AMP phosphodiesterase 4B (Homo sapiens, UniProt Q07343); test: Cross screening panel
Sequence (Q07343 whole entry): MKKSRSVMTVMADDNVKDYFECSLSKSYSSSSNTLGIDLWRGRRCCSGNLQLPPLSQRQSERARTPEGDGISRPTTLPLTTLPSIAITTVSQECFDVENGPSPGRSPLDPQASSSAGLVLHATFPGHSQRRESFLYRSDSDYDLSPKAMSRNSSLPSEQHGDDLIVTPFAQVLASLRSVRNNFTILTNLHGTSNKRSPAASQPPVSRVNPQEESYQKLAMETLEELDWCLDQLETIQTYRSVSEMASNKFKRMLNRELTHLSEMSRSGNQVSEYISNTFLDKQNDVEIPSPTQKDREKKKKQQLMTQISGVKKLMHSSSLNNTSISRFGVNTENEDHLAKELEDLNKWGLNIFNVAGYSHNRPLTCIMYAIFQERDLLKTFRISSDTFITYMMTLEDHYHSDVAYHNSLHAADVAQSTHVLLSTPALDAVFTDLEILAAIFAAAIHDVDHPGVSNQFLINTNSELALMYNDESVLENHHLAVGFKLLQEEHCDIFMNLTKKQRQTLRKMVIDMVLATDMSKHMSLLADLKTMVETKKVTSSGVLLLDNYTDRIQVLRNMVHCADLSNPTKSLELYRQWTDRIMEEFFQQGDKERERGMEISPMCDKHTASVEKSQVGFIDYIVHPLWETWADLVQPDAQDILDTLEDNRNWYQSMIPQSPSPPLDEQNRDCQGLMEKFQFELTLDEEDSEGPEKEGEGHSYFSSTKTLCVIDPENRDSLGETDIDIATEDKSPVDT
recorded-endpoint: IC50 (µM)

{"compound": "COCc1nc2cnc3cc(-c4c(C)noc4C)c(OC[C@H]4CCNC4)cc3c2n1[C@H](C)c1ccccc1 [GSK778]", "endpoint-value": 39.8}

---

target: Sodium-dependent serotonin transporter (Homo sapiens, UniProt P31645); experiment: Cross screening panel
Sequence (P31645 whole entry): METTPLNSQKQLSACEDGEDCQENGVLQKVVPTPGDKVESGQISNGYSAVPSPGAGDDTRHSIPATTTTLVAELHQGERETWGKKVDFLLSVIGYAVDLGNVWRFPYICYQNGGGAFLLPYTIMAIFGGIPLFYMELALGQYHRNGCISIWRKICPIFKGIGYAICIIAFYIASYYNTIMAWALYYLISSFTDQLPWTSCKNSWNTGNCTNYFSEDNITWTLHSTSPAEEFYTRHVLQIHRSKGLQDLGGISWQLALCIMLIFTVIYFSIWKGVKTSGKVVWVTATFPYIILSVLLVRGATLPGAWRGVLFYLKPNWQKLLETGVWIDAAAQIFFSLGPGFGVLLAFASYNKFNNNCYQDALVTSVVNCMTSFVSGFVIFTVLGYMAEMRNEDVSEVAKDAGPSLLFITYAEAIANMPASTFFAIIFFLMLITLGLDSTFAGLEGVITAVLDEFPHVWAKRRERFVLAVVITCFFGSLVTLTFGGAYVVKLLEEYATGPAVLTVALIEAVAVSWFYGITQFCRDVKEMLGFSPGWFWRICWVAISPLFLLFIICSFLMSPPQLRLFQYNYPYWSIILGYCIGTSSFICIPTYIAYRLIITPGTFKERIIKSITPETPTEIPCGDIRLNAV
pIC50: −log10 of the molar value.
recorded-endpoint: pIC50

{"given-smiles": "COCc1nc2cnc3cc(-c4c(C)noc4C)c(OC[C@H]4CCNC4)cc3c2n1[C@H](C)c1ccccc1", "recorded-endpoint": "pIC50", "endpoint-value": 4.40}

---

biological target: D(2) dopamine receptor (Homo sapiens, UniProt P14416)
recorded-endpoint: IC50 (µM)

{"given-smiles": "COCc1nc2cnc3cc(-c4c(C)noc4C)c(OC[C@H]4CCNC4)cc3c2n1[C@H](C)c1ccccc1", "system-under-test": "D(2) dopamine receptor (Homo sapiens, UniProt P14416)", "endpoint-value": 3.16}

---

target: 5-hydroxytryptamine receptor 2A (Homo sapiens)
Sequence (P28223 whole entry): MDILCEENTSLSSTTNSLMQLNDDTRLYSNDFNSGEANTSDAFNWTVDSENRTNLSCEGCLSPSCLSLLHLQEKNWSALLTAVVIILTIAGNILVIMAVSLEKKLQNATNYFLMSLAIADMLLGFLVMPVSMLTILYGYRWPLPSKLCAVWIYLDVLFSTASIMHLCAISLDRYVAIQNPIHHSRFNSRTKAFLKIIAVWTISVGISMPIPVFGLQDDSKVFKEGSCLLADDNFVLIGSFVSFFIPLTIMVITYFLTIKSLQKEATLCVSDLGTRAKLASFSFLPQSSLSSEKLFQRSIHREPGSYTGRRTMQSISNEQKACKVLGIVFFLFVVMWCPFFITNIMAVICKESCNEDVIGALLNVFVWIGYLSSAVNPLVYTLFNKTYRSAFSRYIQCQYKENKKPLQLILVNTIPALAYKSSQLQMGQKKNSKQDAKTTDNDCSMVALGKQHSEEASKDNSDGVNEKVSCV
pIC50: −log10 of the molar value.
recorded-endpoint: pIC50

{"compound": "COCc1nc2cnc3cc(-c4c(C)noc4C)c(OC[C@H]4CCNC4)cc3c2n1[C@H](C)c1ccccc1 [GSK778]", "recorded-endpoint": "pIC50", "endpoint-value": "< 4.60"}

---

molecular target: Bromodomain-containing protein 2 (Homo sapiens); test: BRD2(2) DiscoverX BROMOscan
Sequence (P25440 whole entry): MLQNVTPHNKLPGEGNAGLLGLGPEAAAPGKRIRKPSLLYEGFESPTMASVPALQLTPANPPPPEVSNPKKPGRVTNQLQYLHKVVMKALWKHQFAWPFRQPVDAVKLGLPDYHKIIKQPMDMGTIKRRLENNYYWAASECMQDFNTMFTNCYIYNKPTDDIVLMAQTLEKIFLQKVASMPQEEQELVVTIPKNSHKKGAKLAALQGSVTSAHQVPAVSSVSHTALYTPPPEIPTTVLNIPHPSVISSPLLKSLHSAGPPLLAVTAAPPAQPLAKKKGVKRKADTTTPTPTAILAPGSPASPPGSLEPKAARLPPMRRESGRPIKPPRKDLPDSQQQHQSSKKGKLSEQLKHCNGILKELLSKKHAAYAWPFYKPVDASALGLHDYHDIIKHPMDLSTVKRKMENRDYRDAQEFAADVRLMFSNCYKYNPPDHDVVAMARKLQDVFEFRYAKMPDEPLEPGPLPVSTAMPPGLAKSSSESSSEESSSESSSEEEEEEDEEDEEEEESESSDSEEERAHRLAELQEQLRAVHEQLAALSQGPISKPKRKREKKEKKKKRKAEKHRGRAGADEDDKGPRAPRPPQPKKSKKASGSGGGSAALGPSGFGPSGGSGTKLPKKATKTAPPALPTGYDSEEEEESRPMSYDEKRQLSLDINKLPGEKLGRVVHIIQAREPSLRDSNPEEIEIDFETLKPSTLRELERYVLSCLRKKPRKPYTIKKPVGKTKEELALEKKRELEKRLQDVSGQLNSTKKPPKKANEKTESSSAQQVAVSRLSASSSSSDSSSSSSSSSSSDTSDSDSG

{"given-smiles": "COCc1nc2cnc3cc(-c4c(C)noc4C)c(OC[C@H]4CCNC4)cc3c2n1[C@H](C)c1ccccc1", "unit-abbreviation": "nM", "Kd": 840}

---

target: Cytochrome P450 3A4 (Homo sapiens); experiment: Cross screening panel
Sequence (P08684 whole entry): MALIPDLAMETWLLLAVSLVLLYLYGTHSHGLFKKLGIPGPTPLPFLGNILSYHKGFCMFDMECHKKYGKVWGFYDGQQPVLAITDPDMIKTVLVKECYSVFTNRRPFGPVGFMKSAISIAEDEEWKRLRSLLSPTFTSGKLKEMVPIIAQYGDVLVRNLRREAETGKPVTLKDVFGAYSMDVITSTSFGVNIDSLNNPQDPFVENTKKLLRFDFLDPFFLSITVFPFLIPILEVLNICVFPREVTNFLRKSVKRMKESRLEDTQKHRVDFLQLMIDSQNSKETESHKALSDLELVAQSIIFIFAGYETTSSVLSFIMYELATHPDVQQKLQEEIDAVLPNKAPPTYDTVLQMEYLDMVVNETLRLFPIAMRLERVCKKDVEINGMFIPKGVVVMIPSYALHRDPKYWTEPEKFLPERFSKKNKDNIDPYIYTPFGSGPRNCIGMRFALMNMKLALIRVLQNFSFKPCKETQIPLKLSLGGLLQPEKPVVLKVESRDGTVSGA
pIC50: −log10 of the molar value.

{"given-smiles": "COCc1nc2cnc3cc(-c4c(C)noc4C)c(OC[C@H]4CCNC4)cc3c2n1[C@H](C)c1ccccc1", "pIC50": 5.20}

Cited source for all entries: ChEMBL document CHEMBL4630907
